- Method description: Volume of distribution at steady state in rat at 1 mg/kg, iv
- Type: ADME, organism-based
- Parameters: dose 1 mg/kg, route intravenous
- Applied conditions: in vivo, read-out: Vdss
Property: Vd (L/kg)
Respond numerically; units are L/kg and should not be typed.

Below: 3 molecules and their reported Vd.
O=C(O)CCCN1CC(C(=O)O)Oc2c(/C=C/c3ccc(OCCCCc4ccccc4)cc3)cccc21 (configuration not stated)    0.365
O=C(O)CCCn1cc(CC(=O)O)c2c(/C=C/c3ccc(OCCCCOc4ccccc4)cc3)cccc21    0.208
O=C(O)CCCN1CC(C(=O)O)Oc2c(OCc3ccc(OCCCCc4ccccc4)cc3)cccc21 (configuration not stated)    0.18

Need Vd, item O=C(O)CCCN1CC(c2nnn[nH]2)Oc2c(CCc3ccc(OCCCCc4ccccc4)cc3)cccc21 (configuration not stated) 0.999

Need Vd, item O=C(O)CCCN1CC(c2nnn[nH]2)Oc2c(NC(=O)c3ccc(OCCCCc4ccccc4)cc3)cccc21 (configuration not stated) 0.342

Need Vd, item O=C(O)CCCN1CC(C(=O)O)Oc2c(NC(=O)c3ccc(OCCCCc4ccccc4)cc3)cccc21 (configuration not stated) 0.104

Need Vd, item O=C(O)CCCN1CC(C(=O)O)Oc2c(CCc3ccc(OCCCCc4ccccc4)cc3)cccc21 (configuration not stated) 1.46

Reference source: ChEMBL document CHEMBL3400104
